This collection of values is drawn from patent US6858591B2.

Consider the following compounds; for each one, report its MIC.
- System: C. albicans GC 3066
- protocol_details: In vitro MIC, broth dilution
- Assay type: cell-based
- protocol_conditions: Candida albicans, GC3066; C. albicans GC 3066; read-out: MIC

State its MIC for this compound: CCOC(=O)C(NCCCNC(=O)[C@@H](NC(=O)[C@H](CCCNC(=N)N)NC(=O)N[C@H](C(=O)O)C(C)C)[C@@H](O)C(C)C)[C@@H](O)[C@H]1O[C@@H](n2ccc(=O)[nH]c2=O)[C@H](OC(C)=O)[C@@H]1OC(C)=O (some centres unmarked) [Example 43]
128 µg/mL

State its MIC for this compound: CCOC(=O)C(NCCCNC(=O)[C@@H](N)CC(C)C)[C@@H](OC(C)=O)[C@H]1O[C@@H](n2ccc(=O)[nH]c2=O)[C@H](OC(C)=O)[C@@H]1OC(C)=O (some centres unmarked) [Example 40]
> 128 µg/mL

State its MIC for this compound: CCOC(=O)C(NCCCNC(=O)[C@H](CC(C)C)NC(=O)[C@H](CCCNC(=N)N[N+](=O)O)NC(=O)N[C@H](C(=O)OCc1ccccc1)C(C)C)C(OC(C)=O)[C@H]1O[C@H](n2ccc(=O)[nH]c2=O)[C@H](OC(C)=O)[C@@H]1OC(C)=O (some centres unmarked) [Example 41]
128 µg/mL

State its MIC for this compound: COc1ccc(Cn2c(=O)ccn([C@@H]3OC([C@H](O)[C@H](NCCCNC(=O)[C@H](N)CC(C)C)C(=O)OC(C)(C)C)[C@@H](O[Si](C)(C)C(C)(C)C)[C@H]3O[Si](C)(C)C(C)(C)C)c2=O)cc1 (some centres unmarked) [Example 57]
128 µg/mL

State its MIC for this compound: COc1ccc(Cn2c(=O)ccn([C@@H]3OC([C@H](O)[C@H](NCCCNC(=O)[C@H](CC(C)C)NC(=O)[C@H](CCCNC(=N)N[N+](=O)[O-])NC(=O)N[C@H](C(=O)OCc4ccccc4)C(C)C)C(=O)O)[C@@H](O)[C@H]3O)c2=O)cc1 (some centres unmarked) [Example 49]
128 µg/mL

State its MIC for this compound: COc1ccc(Cn2c(=O)ccn([C@@H]3OC([C@H](O)[C@H](NCCCNC(=O)[C@H](CC(C)C)NC(=O)OCc4ccccc4)C(=O)OC(C)(C)C)[C@@H](O[Si](C)(C)C(C)(C)C)[C@H]3O[Si](C)(C)C(C)(C)C)c2=O)cc1 (some centres unmarked) [Example 4]
> 128 µg/mL

State its MIC for this compound: CC(C)C[C@H](NC(=O)OCc1ccccc1)C(=O)NCCCN[C@H](C(=O)O)[C@@H](O)C1O[C@@H](n2ccc(=O)[nH]c2=O)[C@H](O)[C@@H]1O (some centres unmarked) [Example 55]
128 µg/mL

State its MIC for this compound: COc1ccc(Cn2c(=O)ccn([C@@H]3OC([C@H](O)[C@H](NCCCNC(=O)[C@@H](N)CCCCN)C(=O)OC(C)(C)C)[C@@H](O[Si](C)(C)C(C)(C)C)[C@H]3O[Si](C)(C)C(C)(C)C)c2=O)cc1 (some centres unmarked) [Example 19]
> 128 µg/mL

State its MIC for this compound: COc1ccc(Cn2c(=O)ccn([C@@H]3OC([C@H](O)[C@H](NCCCNC(=O)[C@H](C)NC(=O)OCc4ccccc4)C(=O)OC(C)(C)C)[C@@H](O[Si](C)(C)C(C)(C)C)[C@H]3O[Si](C)(C)C(C)(C)C)c2=O)cc1 (some centres unmarked) [Example 14]
128 µg/mL

State its MIC for this compound: CCOC(=O)C(NCCCNC(=O)[C@H](CC(C)C)NC(=O)OCc1ccccc1)C(OC(C)=O)[C@H]1O[C@H](n2ccc(=O)[nH]c2=O)[C@H](OC(C)=O)[C@@H]1OC(C)=O (some centres unmarked) [Example 38a]
> 128 µg/mL

State its MIC for this compound: CCOC(=O)C(NCCCNC(=O)[C@@H](NC(=O)[C@H](CCCNC(=N)N[N+](=O)O)NC(=O)N[C@H](C(=O)OCc1ccccc1)C(C)C)C(C)O)C(O)[C@H]1O[C@H](n2ccc(=O)[nH]c2=O)[C@H](OC(C)=O)[C@@H]1OC(C)=O (some centres unmarked) [Example 34]
128 µg/mL

State its MIC for this compound: CCOC(=O)C(NCCCNC(=O)[C@@H](NC(=O)OCc1ccccc1)[C@@H](O)C(C)C)[C@@H](O)[C@H]1O[C@@H](n2ccc(=O)[nH]c2=O)[C@H](OC(C)=O)[C@@H]1OC(C)=O (some centres unmarked) [Example 36]
128 µg/mL

State its MIC for this compound: COc1ccc(Cn2c(=O)ccn([C@@H]3OC([C@H](O)[C@H](NCCCNC(=O)[C@@H](N)[C@@H](O)C(C)C)C(=O)OC(C)(C)C)[C@@H](O[Si](C)(C)C(C)(C)C)[C@H]3O[Si](C)(C)C(C)(C)C)c2=O)cc1 (some centres unmarked) [Example 2]
> 128 µg/mL

State its MIC for this compound: COc1ccc(Cn2c(=O)ccn([C@@H]3OC([C@H](O)[C@H](NCCCNC(=O)CCCCCCCCCCN)C(=O)OC(C)(C)C)[C@@H](O[Si](C)(C)C(C)(C)C)[C@H]3O[Si](C)(C)C(C)(C)C)c2=O)cc1 (some centres unmarked) [Example 25]
128 µg/mL

State its MIC for this compound: COc1ccc(Cn2c(=O)ccn([C@@H]3OC([C@H](O)[C@H](NCCCNC(=O)[C@@H](NC(=O)[C@H](CCCNC(=N)N[N+](=O)[O-])NC(=O)N[C@H](C(=O)OCc4ccccc4)C(C)C)C(C)O)C(=O)O)[C@@H](O)[C@H]3O)c2=O)cc1 (some centres unmarked) [Example 47]
128 µg/mL

State its MIC for this compound: COc1ccc(Cn2c(=O)ccn([C@@H]3OC([C@H](O)[C@H](NC(=O)CCCCCCCCCCN)C(=O)OC(C)(C)C)[C@@H](O[Si](C)(C)C(C)(C)C)[C@H]3O[Si](C)(C)C(C)(C)C)c2=O)cc1 (some centres unmarked) [Example 23]
128 µg/mL

State its MIC for this compound: CCOC(=O)C(NCCCNC(=O)[C@@H](NC(=O)[C@H](CCCNC(=N)N[N+](=O)O)NC(=O)N[C@H](C(=O)OCc1ccccc1)C(C)C)[C@@H](O)C(C)C)C(O)[C@H]1O[C@@H](n2ccc(=O)[nH]c2=O)[C@H](OC(C)=O)[C@@H]1OC(C)=O (some centres unmarked) [Example 37]
> 128 µg/mL

====

Consider the following molecules; for each one, report its MIC.
- Test system: E. faecalis GC 842
- protocol_details: In vitro MIC, broth dilution
- Format: cell-based
- protocol_conditions: Enterococcus faecalis, GC842; E. faecalis GC 842; read-out: MIC
Report the figure in µg/mL without appending any unit label.

State its MIC for this molecule: COc1ccc(Cn2c(=O)ccn([C@@H]3OC([C@H](O)[C@H](NCCCNC(=O)CCCCCCCCCCN)C(=O)OC(C)(C)C)[C@@H](O[Si](C)(C)C(C)(C)C)[C@H]3O[Si](C)(C)C(C)(C)C)c2=O)cc1 (some centres unmarked)
128

State its MIC for this molecule: COc1ccc(Cn2c(=O)ccn([C@@H]3OC([C@H](O)[C@H](NCCCNC(=O)[C@@H](N)[C@@H](O)C(C)C)C(=O)OC(C)(C)C)[C@@H](O[Si](C)(C)C(C)(C)C)[C@H]3O[Si](C)(C)C(C)(C)C)c2=O)cc1 (some centres unmarked)
8

State its MIC for this molecule: COc1ccc(Cn2c(=O)ccn([C@@H]3OC([C@H](O)[C@H](NCCCNC(=O)[C@@H](N)[C@H](C)O)C(=O)OC(C)(C)C)[C@@H](O[Si](C)(C)C(C)(C)C)[C@H]3O[Si](C)(C)C(C)(C)C)c2=O)cc1 (some centres unmarked)
4

State its MIC for this molecule: COc1ccc(Cn2c(=O)ccn([C@@H]3OC([C@H](O)[C@H](NCCCNC(=O)[C@H](CC(C)C)NC(=O)OCc4ccccc4)C(=O)O)[C@@H](O)[C@H]3O)c2=O)cc1 (some centres unmarked)
128

State its MIC for this molecule: COc1ccc(Cn2c(=O)ccn([C@@H]3OC([C@H](O)[C@H](NCCCNC(=O)[C@@H](NC(=O)[C@H](CCCNC(=N)N[N+](=O)[O-])NC(=O)N[C@H](C(=O)OCc4ccccc4)C(C)C)C(C)O)C(=O)O)[C@@H](O)[C@H]3O)c2=O)cc1 (some centres unmarked)
128

State its MIC for this molecule: CCOC(=O)C(NCCCNC(=O)[C@@H](NC(=O)OCc1ccccc1)C(C)O)C(O)[C@H]1O[C@H](n2ccc(=O)[nH]c2=O)[C@H](OC(C)=O)[C@@H]1OC(C)=O (some centres unmarked) [Example 31a]
128

State its MIC for this molecule: COc1ccc(Cn2c(=O)ccn([C@@H]3OC([C@H](O)[C@H](NC(=O)CCCCCCCCCCN)C(=O)OC(C)(C)C)[C@@H](O[Si](C)(C)C(C)(C)C)[C@H]3O[Si](C)(C)C(C)(C)C)c2=O)cc1 (some centres unmarked)
128

State its MIC for this molecule: COc1ccc(Cn2c(=O)ccn([C@@H]3OC(C(O)[C@H](NCCCNC(=O)[C@@H](N)CC(=O)O)C(=O)OC(C)(C)C)[C@@H](O[Si](C)(C)C(C)(C)C)[C@H]3O[Si](C)(C)C(C)(C)C)c2=O)cc1 (stereo in doubt)
32

State its MIC for this molecule: COc1ccc(Cn2c(=O)ccn([C@@H]3OC([C@H](O)[C@H](NCCCNC(=O)[C@H](C)N)C(=O)OC(C)(C)C)[C@@H](O[Si](C)(C)C(C)(C)C)[C@H]3O[Si](C)(C)C(C)(C)C)c2=O)cc1 (some centres unmarked)
4

State its MIC for this molecule: COc1ccc(Cn2c(=O)ccn([C@@H]3OC([C@H](O)[C@H](NCCCNC(=O)[C@@H](N)CC(C)C)C(=O)O)[C@@H](O)[C@H]3O)c2=O)cc1 (some centres unmarked)
128
